Target: 5-HT transporter (Rattus norvegicus, UniProt P31652)
Construct: synaptosomes of rat brain areas are freshly isolated; from tissue; host or cells: rat brain synaptosomes (P2 fraction) from marrow and pons
Sequence (P31652 whole entry): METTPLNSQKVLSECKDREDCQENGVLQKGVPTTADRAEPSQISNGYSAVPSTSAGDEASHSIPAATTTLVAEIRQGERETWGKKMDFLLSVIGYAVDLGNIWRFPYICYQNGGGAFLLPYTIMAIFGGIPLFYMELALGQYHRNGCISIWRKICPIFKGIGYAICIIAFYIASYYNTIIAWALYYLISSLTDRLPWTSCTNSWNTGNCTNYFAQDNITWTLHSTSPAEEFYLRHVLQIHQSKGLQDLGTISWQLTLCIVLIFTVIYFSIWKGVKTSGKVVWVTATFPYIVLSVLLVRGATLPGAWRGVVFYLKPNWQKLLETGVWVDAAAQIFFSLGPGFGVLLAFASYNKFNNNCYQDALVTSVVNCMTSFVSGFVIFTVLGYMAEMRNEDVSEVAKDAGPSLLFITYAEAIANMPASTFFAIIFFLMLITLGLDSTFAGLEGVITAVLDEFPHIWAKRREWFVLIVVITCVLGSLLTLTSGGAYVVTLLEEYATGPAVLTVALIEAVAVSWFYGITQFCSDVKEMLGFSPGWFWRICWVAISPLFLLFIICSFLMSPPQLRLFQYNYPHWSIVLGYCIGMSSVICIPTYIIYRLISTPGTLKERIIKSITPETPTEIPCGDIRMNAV
Experiment: Inhibition of 5-HT uptake in rat brain synaptosomes
Assay type: biochemical
Conditions: read-out: Uptake 5-HT, % inhibition; Table III; rat, 1 μM
What inhibition at 1 µM was measured for each of the following?

Query: inhibition at 1 µM; subject: Cc1cc(C(=O)N2CCC3(CC2)NC(Cc2ccccc2)C(=O)N3C)no1 (stereo not shown)
36%

Query: inhibition at 1 µM; subject: CCOC(=O)CN1C(=O)C(CC(C)C)NC12CCN(C(=O)CC(C)C)CC2 (stereo not shown)
45%

Query: inhibition at 1 µM; subject: CCC(C(=O)N1CCC2(CC1)NC(Cc1ccccc1)C(=O)N2Cc1ccccc1)c1ccccc1 (stereo not shown)
63%

Query: inhibition at 1 µM; subject: CCCCN1C(=O)C(Cc2ccccc2)NC12CCN(C(=O)c1snnc1C)CC2 (stereo not shown)
46%
